Each recorded value in this set is attributed to the RNAGym collection of RNA variant scans (doi:10.1002/anie.201605470).

Kindly state self-cleavage for each of the entries shown.
B1: Osa-1-4 twister ribozyme (parent)
chain: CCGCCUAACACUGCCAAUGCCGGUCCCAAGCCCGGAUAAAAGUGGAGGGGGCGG

variants of: B1; test: self-cleavage, relative activity (ratio to wild type); higher = more cleavage; co-transcriptional
// no unit, no text: just the number

Give its self-cleavage value. Item: CCGCCUAAAACUGCCAAUGCCGGUCCCAAGCCCCGAUAAAAGUGGAGGGGGCGG [C9A G34C]
0.08

// returns reported self-cleavage for input CCGCCUAACACUGCCAAUACCGGUCCCAAACCCGGAUAAAAGUGGAGGGGGCGG [G19A G30A]
0.05

# get_value(readout='self-cleavage', item= CCGCCUAACAAUGCCAAUGCCGGUCCCAAGCCCGGACAAAAGUGGAGGGGGCGG [C11A U37C] )
0.88

What does the record list as self-cleavage for CCGCCUAACACUGCCAAUGCCGGUCUCAAGCCCGGAUAAAAGUGGAGGGGGAGG [C26U C52A] ?
0.71

Reported self-cleavage for CCGCCUAACACUGCCAAUGCCGGGCCCAAGCCCGGAUAAAAGUUGAGGGGGCGG [G44U U24G] : what is it?
0.04
